- System: lung cancer cells NCI-H358
- Experimental details: Cell proliferation assay, CELL TITER-GLO (CTG) luminescence, NCI-H358
- Type: cell-based
- Measurement context: Homo sapiens, NCI-H358, ultra-low adsorption plate, cultured for 96 hrs
Observation type: pIC50
Please note pIC50 is a logarithmic value: minus log10 of concentration in mol/L. Answer with that number alone.

Input N[C@@H]1c2ccccc2CC12CCN(c1ncc(C#CCNc3ccc(C(F)(F)F)nc3)nc1CO)CC2 [Compound A63] . Output pIC50: 7.44

Input NC(=O)c1cccc(NCC#Cc2cnc(N3CCC4(CC3)Cc3ccccc3[C@H]4N)c(CO)n2)c1 [Compound A81] . Output pIC50: 8.20

Input N[C@@H]1c2ccccc2CC12CCN(c1ncc(C#CCOc3ccc(O)cn3)nc1CO)CC2 [Compound A75] . Output pIC50: 7.11

Input N[C@@H]1c2ccccc2CC12CCN(c1ncc(C#CCOc3cccc(Cl)c3F)nc1CO)CC2 [Compound A05] . Output pIC50: 7.82

###

- Test system: lung cancer cells NCI-H358
- Experimental details: Cell proliferation assay, CELL TITER-GLO (CTG) luminescence, NCI-H358
- Assay type: cell-based
- Measurement context: Homo sapiens, NCI-H358, ultra-low adsorption plate, cultured for 96 hrs
Checkbox rule: IC50 lower than 7 nM = true (1); IC50 not lower than 7 nM = false (0).

Is the reported IC50 for N#Cc1ccc(OCC#Cc2cnc(N3CCC4(CC3)Cc3ccccc3[C@H]4N)c(CO)n2)cc1 [Compound A12] strictly below 7 nM?
false (0)

Is the reported IC50 for CNC(=O)c1cccc(OCC#Cc2cnc(N3CCC4(CC3)Cc3ccccc3[C@H]4N)c(CO)n2)c1 [Compound A35] strictly below 7 nM?
true (1)

Is the reported IC50 for Cc1nc2cc(OCC#Cc3cnc(N4CCC5(CC4)Cc4ccccc4[C@H]5N)c(CO)n3)ccc2[nH]1 [Compound A73] strictly below 7 nM?
true (1)

Is the reported IC50 for COc1cc(OCC#Cc2cnc(N3CCC4(CC3)Cc3ccccc3[C@H]4N)c(CO)n2)ccn1 [Compound A49] strictly below 7 nM?
false (0)

Is the reported IC50 for COc1cccc(OCC#Cc2cnc(N3CCC4(CC3)Cc3ccccc3[C@H]4N)c(CO)n2)c1 [Compound A02] strictly below 7 nM?
false (0)

Is the reported IC50 for CC(=O)Nc1cccc(NCC#Cc2cnc(N3CCC4(CC3)Cc3ccccc3[C@H]4N)c(CO)n2)c1 [Compound A65] strictly below 7 nM?
false (0)

Is the reported IC50 for N[C@@H]1c2ccccc2CC12CCN(c1ncc(C#CCOc3ccc4c(c3)CCNC4=O)nc1CO)CC2 [Compound A52] strictly below 7 nM?
true (1)

Is the reported IC50 for N[C@@H]1c2ccccc2CC12CCN(c1ncc(C#CCOc3ccc4ccc(=O)[nH]c4c3)nc1CO)CC2 [Compound A24] strictly below 7 nM?
true (1)

Is the reported IC50 for CC(=O)Nc1cccc(OCC#Cc2cnc(N3CCC4(CC3)Cc3ccccc3[C@H]4N)n(C)c2=O)c1 [Compound A34] strictly below 7 nM?
false (0)

Is the reported IC50 for N[C@@H]1c2ccccc2CC12CCN(c1ncc(C#CCOc3ccccc3)nc1CO)CC2 [Compound A01] strictly below 7 nM?
false (0)

Is the reported IC50 for CC(=O)c1cccc(OCC#Cc2cnc(N3CCC4(CC3)Cc3ccccc3[C@H]4N)c(CO)n2)c1 [Compound A16] strictly below 7 nM?
false (0)

Is the reported IC50 for COc1ccccc1OCC#Cc1cnc(N2CCC3(CC2)Cc2ccccc2[C@H]3N)c(CO)n1 [Compound A10] strictly below 7 nM?
true (1)

Is the reported IC50 for N#Cc1cccc(OCC#Cc2cnc(N3CCC4(CC3)Cc3ccccc3[C@H]4N)c(CO)n2)c1 [Compound A53] strictly below 7 nM?
false (0)

Is the reported IC50 for NC(=O)Cc1cccc(OCC#Cc2cnc(N3CCC4(CC3)Cc3ccccc3[C@H]4N)c(CO)n2)c1 [Compound A59] strictly below 7 nM?
true (1)

Is the reported IC50 for NC(=O)Cn1cc(OCC#Cc2cnc(N3CCC4(CC3)Cc3ccccc3[C@H]4N)c(CO)n2)cn1 [Compound A82] strictly below 7 nM?
false (0)
